Reference source for all entries: the supplement of paper PMC9170038

Test system: MS2 coat protein
Assay: apparent KD of MS2 coat protein; designed switch direction (-1 OFF switch, 1 ON switch): 1; higher = weaker reporter binding
Conditions: input ligand: microRNA oligo, concentration not stated
Task for the reader: assign each of the following sequences its reported apparent KD of MS2 coat protein.

Count: 4. Required value per item: apparent KD of MS2 coat protein.
1. UGUUGUAUUACAGGAUAUCUAUUAUUUUUAUUUAGAGAAGGGUAUUCACAUGAGGAUCACCCAUGUAUAUACGAGGAAGAUGUG [JMF's solution 5] (Eterna round: R96, puzzle: Same State NG 1)
2. GUGGUCAAUCAAGGAUAUGGAGCCUUAUUGGCUCCAGAAGGUGGGACAUGAGGAUCACCCAUGUGGCAGUGGUCAAAUGACCAC [Fiskers NG1ss - 34] (Eterna round: R96, puzzle: Same State NG 1)
3. AGAUCAUGACGAGGAUAUGCCACAUGAGGAUCACCCAUGUAUGUGGUAGGACGCGUACGUCCAAAGCAGAAGGCGUCGUGGUCA [JL SSNG2 1.01] (Eterna round: R96, puzzle: Same State NG 2)
4. UAAAUAAAGUAAGGAUAUACAUGAGGAUUUCUCGUAGAAGGUACAAGACAUGAGGAUCACCCAUGUAUCGCUCGAAAGAGCGUA [Mat - Same State NG 1 - JL mod - D22] (Eterna round: R96, puzzle: Same State NG 1)

0.0604 µM
0.172 µM
0.0285 µM
0.0675 µM

----------
Test system: MS2 coat protein
Assay: apparent KD of MS2 coat protein; designed switch direction (-1 OFF switch, 1 ON switch): -1; higher = weaker reporter binding
Conditions: Eterna round: R95; input ligand: microRNA oligo, concentration not stated
Please use class 1 whenever apparent KD of MS2 coat protein is not below 20 nM, and class 0 whenever it is.

- CUAGUCCGAGGAUAUAUUAAGUGAAACAUGAGGAUCACCCAUGUUAUUUAAUGGAAAUAAAUAGAAGGCGGACUAG [Mat - Exclusion 5 - JL mod - D56] (puzzle: Exclusion 5): class 1
- GUAGAGUAAGGAUAUGUAGAAUAGGAUAGAAUGGUUAGAAUACAGAAGGUACAUGAGGAUCACCCAUGUAAUGU [Excluse me!!!! 3 - Jieux - Exclusion 4] (puzzle: Exclusion 4): class 0
- GUGUAGAUAGGAUAUGCGUGAGUCUAGCGAAGCUAGAUUCUACAUGAGGAUCACCCAUGUAGAAGGGUCUACAC [Fiskers Ex 2 - 26] (puzzle: Exclusion 2): class 0
- GGGAGUGAAGGAUAUACAUGAGGAUCACCCAUGUGGGAGGAGAGAGGUGAGGAGGCUGGUAGAAGGUCAGGAUG [JR_Exclusion3_Sub006] (puzzle: Exclusion 3): class 1

Lab note: next sequence to report on.
# bool: apparent KD of MS2 coat protein of AGGGAUAAAGGAUAUACAUGAGGAUCACCCAUGUUGAGGAAAGUUAGAUGAGGAGGAAGUAGAAGGUUAGGCGA [JR_Exclu3_Sub086] (puzzle: Exclusion 3) >= 20 nM
class 1

----------
Tested on: MS2 coat protein
Test: apparent KD of MS2 coat protein; higher = weaker reporter binding
Conditions: Eterna round: R107; input ligand: tryptophan 2.4 mM
MEASUREMENT TYPE: apparent KD of MS2 coat protein (µM)
Give bare numbers, in µM.

* UCGCUCUGGGUGGGAUCCGGAGAUGUGGAAGGAGCGCUGGUAACAGCAGGUAGGUCGCCAACGGACAUGAGGAUCACCCAUGUAC [Same State - Arginine A (Freestyle 17)] | 0.0267
* AGCAUGUUAGCAGAUACCAGACGUUUUAUGAUCCAUGUAACAUGAGGAUCACCCAUGUAAGUCCCUUGGCAGCUGAAAUAAUGCA [JR_SSTheophyB_Sub011] | 0.127
* GGACUAACCAGAAGGAGCGAUACGCAGAAACUGCAAUUUCCUCUACACGAGGAUCACCCGUGUCAGGUAGGUCGCUGGUUAGUCG | 0.0267
* AUACAUGAGGAUCACCCAUGUUAUAGUGAAGGAGCGACAUUUAUGUCAGGUAGGUCGCACUAUUGUUUAAUGAUUCUUGGAUCUU [JR_ExcArginiA_Sub017] | 0.0185
* CCGUUUUAUGGCGACAUAGGGCGGACUGAAGGAGCGGUAAAACAGCCAGGUAGGUCGCAGAGAUCCACAUGAGGAUCACCCAUGU [!0.aC] | 0.0379
* UAUCCACAUGAGGAUCACCCAUGUAGGGAAGGAGCGGUGGUUGCACCAGGUAGGUCGCCUUGCUGAGGAUAACCGGUGGAAUCGU [Exclusion - Arginine A (Freestyle 28)] | 0.0311
* UUUAGUAUCUUAGAUACCAGUUUUGGGUGCUGAACGUCUCACAUGAGGAUCACCCAUGUAAACCCUUGGCAGCUACAUACGUAAA [theeternabot_exclusion_MS2_Theo_B_41] | 0.0519
* CCUCAAUAGACGGCCGCCACUGAAUCAUGCGGAUACAUGAGGAUCACCCAUGUGGGUGUGGUACGCAGGACCGGGUCAAGACCCG [#13 Same State - Tryptophan B] | 0.149

Hi, could you look up apparent KD of MS2 coat protein for each item in my list?
1. GUAGCUAUCGCGGCCGCCACUAAACCGGAAACGGAACAGGAGGAUCACCCUUGUGGCGAAAGCCAUAGGACCGGGCGAUAGCUAC [TryBS - Double Magnet system]
2. UAGCGAUUUGGUGAUACCAGACGUGUGCAGUCCUCAGACAUGAGGAUCACCCAUGUAUGCGUCCCUUGGCAGCGCUAUGAGGACA [Theo B Ex t6]
3. CGUCGAAACUGAAGGAGCGAGAUAACAACAUUGGGUCUCAACAUGAGGAUCACCCAUGUAUCUCAGGUAGGUCGCGGUGUCACCG [Exclusion Arginine B GF19]
4. AUGCCUAGUGGAAGGAGCGAGGGUCUUCCCAACAUGAGGAUCACCCAUGUUCUUUUACACCCUCAGGUAGGUCGCCAUUGGGACA [Tilexete]

[0.0463, 0.0443, 0.217, 0.0828]
